# procedure-summary: Rat liver microsomal metabolic stability
# Type: in vitro ADME
# test-context: rat liver microsomes, calculated from T1/2, fu defaulted to 1; read-out: CL(liver)
Would you kindly list CLint scaled at 1 µM for each of these compounds?
The reply should be a number in mL/min/kg, with the unit left off.

query: Data request, read-out CLint scaled at 1 µM, for Cc1c([C@@H](C)Nc2nnc(N3CCC3)c3cc(=O)n(C4CC4)cc23)cccc1C(F)(F)F.O=CO [Example 50, formate]
result: 14.2

query: Requested field: CLint scaled at 1 µM. Item: CNc1nnc(N[C@H](C)c2cccc(C(F)F)c2F)c2cn(C3(C)CC3)c(=O)cc12.O=CO [Example 9, formate]
result: 8.2

query: Quick check: CLint scaled at 1 µM of CCN1CCN(c2nnc(N[C@H](C)c3cccc(C(F)(F)F)c3C)c3cn(C4(C)CC4)c(=O)cc23)CC1 ?
result: 12.4

query: Item under review: CCN1CCN(c2nnc(N[C@H](C)c3cccc(C(F)F)c3F)c3cn(C4CC(F)(F)C4)c(=O)cc23)CC1 . Reported CLint scaled at 1 µM?
result: 10.8

FYI, the data here is from patent EP4722213A1.
